Field: INH MICc. Provide a value for each of the compounds that follow.
- System: Candida albicans
- Procedure summary: checkerboard drug interaction (FICI, MICc);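 further: antifungal plus FPPS inhibitor combinations on Candida albicans tested by a simplified diagonal checkerboard screen, with FICI calculated under the Loewe additivity model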
- Assay type: cell-based
- Particulars: C. albicans; KET:INH combination; MIC of the inhibitor in combination with KET
Give the figure by itself; no unit, no explanation.

Request the reported INH MICc associated with `CCCCCCCCCCCN1CCC[C@H]1C(=O)N[C@H](CC(=O)OC)C(=O)OC` 8

Request the reported INH MICc associated with `CCCCCCCCCN1CCC[C@H]1C(=O)N[C@@H](CC(=O)O)C(=O)O` 64

Request the reported INH MICc associated with CCCCCCCCCCn1cc[n+](CC(O)(P(=O)(O)O)P(=O)(O)O)c1 [10-ZOL, Decyl-zoledronate] 0.125

Request the reported INH MICc associated with `CCCCCCCCCN1CCC[C@H]1C(=O)N[C@H](CC(=O)O)C(=O)O` 64
